Reported IC50 values follow for various compounds
experimentalTarget: recombinant human MMP13 catalytic domain (CD) (Homo sapiens, UniProt P45452)
Construct: catalytic domain (CD) construct encompassing residues 20-274 (SWISS-PROT P45452)
assayDetails: MMP-13 catalytic domain FRET enzyme assay
cond: recombinant human MMP-13 catalytic domain

Completed entries (count: 4):
COc1cc(CNC(=O)c2cc(C3=NOC([C@H]4CC[C@H](NC(=O)N(C)C)CC4)C3)nc(C)n2)ccc1F (stereo partly shown); < 10 nM
Cc1nc(C(=O)NCc2ccc(=O)n(C)c2)cc(C2=NO[C@@H]([C@H]3CO[C@H](CO)CO3)C2)n1; 100 to 1000 nM
Cc1cccc(CNC(=O)c2cc(C3=NO[C@H]([C@H]4CO[C@H](CO)CO4)C3)nc(C)n2)c1; > 1000 nM
Cc1nc(C(=O)NCc2cccc(F)c2)cc(C2=NO[C@H]([C@H]3CO[C@H](CO)CO3)C2)n1; > 1000 nM

Give IC50 (recombinant human MMP13 catalytic domain (CD) (Homo sapiens, UniProt P45452)) of the following compound: "Cc1nc(C(=O)NCc2ccc3c(c2)NC(=O)CO3)cc(C2=NO[C@H]([C@H]3CO[C@H](CO)CO3)C2)n1"
< 10 nM

Tell me reported IC50 for "Cc1nc(C(=O)NCc2ccc3oc(C)nc3c2)cc(C2=NO[C@@H]([C@H]3CO[C@H](CO)CO3)C2)n1" , tested with recombinant human MMP13 catalytic domain (CD) (Homo sapiens, UniProt P45452).
> 1000 nM

Which IC50 is reported with recombinant human MMP13 catalytic domain (CD) (Homo sapiens, UniProt P45452) for this entry: "Cc1nc(C(=O)NCc2ccc(F)c(C)c2)cc(C2=NO[C@H]([C@H]3CO[C@H](CS(C)(=O)=O)CO3)C2)n1" ?
< 10 nM

---

experimentalTarget: recombinant human MMP13 catalytic domain (CD) (Homo sapiens)
Construct: catalytic domain (CD) construct encompassing residues 20-274 (SWISS-PROT P45452); made in house
assayDetails: MMP-13 catalytic domain FRET enzyme assay
Type: biochemical
cond: recombinant human MMP-13 catalytic domain
Protocol: A recombinant human MMP13 catalytic domain (CD) construct encompassing residues 20-274 (SWISS-PROT P45452) was generated by synthetic gene methods and bacterial expression. […] The assay is based on the cleavage of this substrate by MMP-13, resulting in decrease of FRET between the donor-acceptor pair and subsequent fluorescence enhancement. […] Fluorescence was measured on a Victor V5 plate reader (Perkin Elmer, Turku, Finland). […]
pIC50: −log10 of the molar value.
propertyLabel: pIC50

COC[C@@H]1CO[C@@H]([C@H]2CC(c3cc(C(=O)NCc4ccc(F)c(OC)c4)nc(C)n3)=NO2)CO1; < 6.00
COc1cc(CNC(=O)c2cc(C3=NO[C@@H]([C@H]4CO[C@H](CO)CO4)C3)nc(C)n2)ccc1F [drawing 1055]; 6.00 to 7.00
CCS(=O)(=O)N1CCC(C2CC(c3cc(C(=O)NCc4ccc(F)c(OC)c4)nc(C)n3)=NO2)CC1 (stereo not shown); > 8.00

// lookup pIC50 for "COc1cc(CNC(=O)c2cc(C3=NO[C@H]([C@H]4CO[C@H](CNC(=O)N(C)C)CO4)C3)nc(C)n2)ccc1F"
7.00 to 8.00

Any idea what its pIC50 is? The compound is CC(=O)N[C@H]1CC[C@H](C2CC(c3cc(C(=O)NCc4ccncc4)nc(C)n3)=NO2)CC1 (stereo partly shown)
7.00 to 8.00

Given COc1cc(CNC(=O)c2cc(C3=NOC(c4ccc(C(N)=O)nn4)C3)nc(C)n2)ccc1F (stereo not shown) , state its recorded pIC50.
7.00 to 8.00

Param item = Cc1nc(C(=O)NCc2ccc(F)cc2)cc(C2=NOC(C3CCN(C(=O)CO)CC3)C2)n1 (stereo not shown) ; retrieve measured pIC50.
7.00 to 8.00

Quick one: pIC50 of COc1cc(CNC(=O)c2cc(C3=NOC(CN4CCOCC4)C3)nc(C)n2)ccc1F (stereo not shown) ?
< 6.00

Using the record for COc1cccc(CNC(=O)c2cc(C3=NOC(C4CCN(S(C)(=O)=O)CC4)C3)nc(C)n2)c1 (stereo not shown) , report its pIC50.
> 8.00

What value of pIC50 has been reported for the following compound? COc1cc(CNC(=O)c2cc(C3=NOC(C4CCC(O)CC4)C3)nc(C)n2)ccc1F (stereo not shown)
> 8.00

Record request: pIC50 value, item Cc1nc(C(=O)NCc2ccc(F)cc2)cc(C2=NOC([C@H]3CC[C@H](NC(=O)[C@H](C)O)CC3)C2)n1 (stereo partly shown)
7.00 to 8.00

Suppose we examine the compound COc1cc(CNC(=O)c2cc(C3=NOC([C@H]4CC[C@H](NC(=O)CC#N)CC4)C3)nc(C)n2)ccc1F (stereo partly shown) ; what pIC50 value has been reported?
> 8.00

Which pIC50 value belongs to COc1cc(CNC(=O)c2cc(C3=NOC(c4ccc(CN5CCOCC5)cc4)C3)nc(C)n2)ccc1F (stereo not shown) ?
7.00 to 8.00

Given the compound "Cc1nc(C(=O)NCc2ccnc3ccccc23)cc(C2=NO[C@H]([C@H]3CO[C@H](CO)CO3)C2)n1" , what is its reported pIC50?
6.00 to 7.00

Form field: reported pIC50 of Cc1nc(C(=O)NCc2ccc(F)c(Cl)c2)cc(C2=NO[C@H]([C@H]3CO[C@@H](CO)CO3)C2)n1 [drawing 924]
< 6.00

What measured pIC50 goes with COc1cc(CNC(=O)c2cc(C3=NOC(CC4CCN(S(C)(=O)=O)CC4)C3)nc(C)n2)ccc1F (stereo not shown) ?
7.00 to 8.00

---

experimentalTarget: recombinant human MMP13 catalytic domain (CD) (Homo sapiens, UniProt P45452)
Construct: catalytic domain (CD) construct encompassing residues 20-274 (SWISS-PROT P45452)
assayDetails: MMP-13 catalytic domain FRET enzyme assay
cond: recombinant human MMP-13 catalytic domain
Method: A recombinant human MMP13 catalytic domain (CD) construct encompassing residues 20-274 (SWISS-PROT P45452) was generated by synthetic gene methods and bacterial expression. […] The assay is based on the cleavage of this substrate by MMP-13, resulting in decrease of FRET between the donor-acceptor pair and subsequent fluorescence enhancement. […] Fluorescence was measured on a Victor V5 plate reader (Perkin Elmer, Turku, Finland). […]
pIC50: −log10 of the molar value.
propertyLabel: pIC50

Answered examples (4):
Cc1nc(C(=O)NCc2ccc3c(c2)OCCO3)cc(C2=NO[C@H]([C@H]3CO[C@H](CO)CO3)C2)n1; 7.00 to 8.00
Cc1nc(C(=O)NCc2ccc(F)c(C)c2)cc(C2=NOC(C3CCN(S(C)(=O)=O)CC3)C2)n1 (centres unmarked); > 8.00
COc1ccc(CNC(=O)c2cc(C3=NOC(C)(c4ccc(Cl)cc4)C3)ccn2)cc1 (centres unmarked); 6.00 to 7.00
COc1cc(CNC(=O)c2cc(C3=NO[C@H]([C@H]4CC[C@H](NC(=O)[C@H](C)O)CC4)C3)nc(C)n2)ccc1F; > 8.00

Quick one: pIC50 of "COc1cc(CNC(=O)c2cc(C3=NO[C@H](C4CCN(C(=O)CO)CC4)C3)nc(C)n2)ccc1F" ?
> 8.00

Param item = COc1cc(CNC(=O)c2cc(C3=NOC([C@H]4CC[C@H](C(N)=O)CC4)C3)nc(C)n2)ccc1F (some centres unmarked) ; retrieve measured pIC50.
> 8.00

Find the recorded pIC50 belonging to CC(=O)N[C@H]1CC[C@H](C2CC(c3cc(C(=O)NCc4ccnc5ccccc45)nc(C)n3)=NO2)CC1 (some centres unmarked) and report it.
6.00 to 7.00

Entry CNC(=O)c1ccc(C2CC(c3cc(C(=O)NCc4ccc(F)c(OC)c4)nc(C)n3)=NO2)nn1 (centres unmarked) has what pIC50?
7.00 to 8.00

---

experimentalTarget: recombinant human MMP13 catalytic domain (CD) (Homo sapiens, UniProt P45452)
Construct: catalytic domain (CD) construct encompassing residues 20-274 (SWISS-PROT P45452)
assayDetails: MMP-13 catalytic domain FRET enzyme assay
cond: recombinant human MMP-13 catalytic domain
pIC50: −log10 of the molar value.
# Lookup of reported pIC50 keyed by entry

Below are worked cases with known answers.
COc1ccc(CNC(=O)c2cc(C3=NOC(c4cnccn4)C3)ccn2)cc1 (stereo not drawn); < 6.00
CNC(=O)Cn1cc(C2CC(c3cc(C(=O)NCc4ccc(F)c(OC)c4)nc(C)n3)=NO2)ccc1=O (stereo not drawn); > 8.00
COc1cc(CNC(=O)c2cc(C3=NOC(c4ccsc4)C3)nc(C)n2)ccc1F (stereo not drawn); > 8.00
CNC(=O)[C@@H]1CO[C@@H]([C@@H]2CC(c3cc(C(=O)NCc4ccc(F)c(OC)c4)nc(C)n3)=NO2)CO1; > 8.00
COc1ccc(CNC(=O)c2cc(C3=NOC(c4ccc(CO)cc4)C3)nc(C)n2)cc1 (stereo not drawn); 7.00 to 8.00

Provide value of pIC50 for this record tested with recombinant human MMP13 catalytic domain (CD) (Homo sapiens, UniProt P45452): "Cc1nc(C(=O)NCc2ccc(F)cc2)cc(C2=NO[C@@H]([C@@H]3CO[C@@H](CO)CO3)C2)n1"
< 6.00

Give recorded pIC50 with recombinant human MMP13 catalytic domain (CD) (Homo sapiens, UniProt P45452) for the following molecule: CC(=O)N1CCC(C2CC(c3cc(C(=O)NCc4ccc(F)c(F)c4)nc(C)n3)=NO2)CC1 (stereo not drawn)
7.00 to 8.00

Query pIC50 on recombinant human MMP13 catalytic domain (CD) (Homo sapiens, UniProt P45452) for COc1cccc(CNC(=O)c2cc(C3=NOC(c4ccccn4)C3)nc(C)n2)c1 (stereo not drawn)
7.00 to 8.00

Form: Entry = Cc1nc(C(=O)NCc2ccc(F)c(F)c2)cc(C2=NOC(c3ccc(=O)n(C)c3)C2)n1 (stereo not drawn) | System = recombinant human MMP13 catalytic domain (CD) (Homo sapiens, UniProt P45452) | pIC50 = ____
7.00 to 8.00

The values you see were collected from patent US9029409B2.
